biological target: Neuronal acetylcholine receptor subunit alpha-7 (Rattus norvegicus); assay: Inhibitory constant against [3H]methyllycaconitine binding towards Nicotinic acetylcholine receptor alpha-7 of rat brain hippocampus
Sequence (Q05941 whole entry): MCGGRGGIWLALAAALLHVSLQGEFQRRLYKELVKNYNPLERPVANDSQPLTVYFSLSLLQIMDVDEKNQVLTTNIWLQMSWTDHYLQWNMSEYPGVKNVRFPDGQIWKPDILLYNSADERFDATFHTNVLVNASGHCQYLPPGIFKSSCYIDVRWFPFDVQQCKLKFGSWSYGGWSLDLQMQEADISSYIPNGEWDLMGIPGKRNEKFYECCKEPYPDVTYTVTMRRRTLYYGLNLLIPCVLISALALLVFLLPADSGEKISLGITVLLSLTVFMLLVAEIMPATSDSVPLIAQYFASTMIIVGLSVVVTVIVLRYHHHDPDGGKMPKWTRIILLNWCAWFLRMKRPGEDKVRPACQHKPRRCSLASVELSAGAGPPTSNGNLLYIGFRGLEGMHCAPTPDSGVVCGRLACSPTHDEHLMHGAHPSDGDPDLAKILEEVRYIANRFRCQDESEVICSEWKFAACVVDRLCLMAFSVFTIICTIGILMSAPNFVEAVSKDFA
measurement.kind: pKi
pKi here: minus log base 10 of the concentration, concentration in moles per litre.

Task: State the recorded pKi for this entry: O=C(Nc1ccc(Br)cc1)O[C@@H]1C2CCN(CC2)[C@@H]1Cc1cncnc1
Output: 7.40

Task: State the recorded pKi for this entry: O=C(Nc1ccc(Br)cc1)O[C@@H]1C2CCN(CC2)[C@@H]1Cc1ccsc1
Output: 6.27

Turning now to a further record.
Task: State the recorded pKi for this entry: CS(=O)(=O)c1ccc(C[C@@H]2[C@H](OC(=O)Nc3ccc(Br)cc3)C3CCN2CC3)cc1
Output: 5.17

The reported measurements were obtained from ChEMBL document CHEMBL1143532.
